Where these numbers come from: patent EP0906294B1

# Target desc: human dopamine D2 (Long form) receptors (Homo sapiens, UniProt P14416)
# Sequence (P14416 whole entry): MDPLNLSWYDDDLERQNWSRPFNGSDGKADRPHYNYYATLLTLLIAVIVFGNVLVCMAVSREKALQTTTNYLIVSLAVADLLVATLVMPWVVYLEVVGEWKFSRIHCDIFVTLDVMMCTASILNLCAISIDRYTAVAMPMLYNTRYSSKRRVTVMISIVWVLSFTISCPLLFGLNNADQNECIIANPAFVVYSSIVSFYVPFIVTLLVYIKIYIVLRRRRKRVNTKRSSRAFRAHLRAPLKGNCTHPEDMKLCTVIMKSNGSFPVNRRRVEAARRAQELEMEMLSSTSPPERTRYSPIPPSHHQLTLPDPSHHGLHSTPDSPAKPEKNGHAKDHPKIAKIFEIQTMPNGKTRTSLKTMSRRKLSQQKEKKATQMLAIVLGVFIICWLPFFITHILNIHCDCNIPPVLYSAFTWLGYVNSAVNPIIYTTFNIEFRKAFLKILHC
# Measurement notes: Receptor binding assay, [3H]spiperone competition, D2
# Run conditions: CHO K1 cell membranes, 0.2 nM [3H]spiperone, 60 minutes at 25°C; apparent Ki from IC50 by Cheng and Prusoff
Readout type: Ki (nM)

# example entries with known answers
>>> recorded_value("O=C1COc2cc(CN3CCN(c4ccccc4)CC3)ccc2N1")
129
>>> recorded_value("Cc1ccc(C2CCN(Cc3ccc4c(c3)OCC(=O)N4)CC2)cc1C")
610
>>> recorded_value("COc1ccc(C2CCN(Cc3ccc4c(c3)OCC(=O)N4)CC2)cc1")
1130
>>> recorded_value("Cc1ccc(N2CCN(Cc3ccc4c(c3)OCC(=O)N4)CC2)cc1C")
346

I. Cc1ccc(C2CCN(Cc3ccc4c(c3)OCC(=O)N4)CC2)cc1
II. COc1ccc(C2CCN(Cc3ccc4c(c3)NC(=O)CO4)CC2)cc1
When I and II are compared, which has the higher number for Ki? Your answer should be the label of the entry you select. II
(II: 698 nM, I: 287 nM)
